Origin of the recorded values: PubChem BioAssay (NCATS)

- tested_on: Glucocorticoid receptor (Homo sapiens) (UniProt P04150)
- Sequence (P04150 whole entry, looked up): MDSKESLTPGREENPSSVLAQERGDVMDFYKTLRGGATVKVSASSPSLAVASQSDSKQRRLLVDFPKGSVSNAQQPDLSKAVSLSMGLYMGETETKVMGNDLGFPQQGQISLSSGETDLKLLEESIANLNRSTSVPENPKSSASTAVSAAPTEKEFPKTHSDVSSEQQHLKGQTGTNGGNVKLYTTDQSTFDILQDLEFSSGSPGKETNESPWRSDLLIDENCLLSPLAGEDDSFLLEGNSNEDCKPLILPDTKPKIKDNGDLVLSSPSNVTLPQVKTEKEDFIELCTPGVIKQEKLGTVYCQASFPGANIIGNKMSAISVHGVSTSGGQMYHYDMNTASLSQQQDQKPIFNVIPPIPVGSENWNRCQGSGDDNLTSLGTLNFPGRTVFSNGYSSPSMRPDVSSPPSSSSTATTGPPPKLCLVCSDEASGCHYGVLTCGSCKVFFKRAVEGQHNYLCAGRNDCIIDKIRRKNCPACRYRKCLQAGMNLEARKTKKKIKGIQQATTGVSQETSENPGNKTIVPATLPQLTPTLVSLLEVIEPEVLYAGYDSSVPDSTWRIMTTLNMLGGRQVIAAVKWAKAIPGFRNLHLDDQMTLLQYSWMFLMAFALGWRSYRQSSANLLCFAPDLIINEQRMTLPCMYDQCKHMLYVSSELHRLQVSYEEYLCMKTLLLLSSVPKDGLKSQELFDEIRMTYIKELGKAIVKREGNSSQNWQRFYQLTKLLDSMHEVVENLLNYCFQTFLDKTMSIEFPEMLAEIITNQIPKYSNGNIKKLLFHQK
- experimental_protocol: GR-GFP Redistribution (AID 450); also: potency is read from the fitted curve at half-maximal effect
- assay_context: U2OS GR-GFP nuclear translocation, laser cytometry, 2 h
Active and inactive are the calls of the source.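 The calls were made as follows: active = compounds whose dose series gives a full or clear partial fitted curve of increased nuclear translocation; inconclusive = weak partial curve or effect only at the top dose; inactive = no dose-dependent translocation response.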
measured_quantity: Potency

# smiles_text, tested_on, measured_quantity, readout_value
records = [
    ("CCNc1ncc2nc(-c3ccc(OC)cc3)c(=O)n(CCC#N)c2n1", "Glucocorticoid receptor (Homo sapiens) (UniProt P04150)", "Potency", "> 9.22 µM (inactive)"),
    ("Cc1ccccc1-c1ccc2ncnc(N3CCNCC3)c2c1", "Glucocorticoid receptor (Homo sapiens) (UniProt P04150)", "Potency", "> 46 µM (inactive)"),
    ("COc1cccc(-c2nccc(NCc3ccccc3)n2)c1", "Glucocorticoid receptor (Homo sapiens) (UniProt P04150)", "Potency", "> 46 µM (inactive)"),
    ("CN(C)c1ncc2nc(-c3cccs3)c(=O)n(C3CC3)c2n1", "Glucocorticoid receptor (Homo sapiens) (UniProt P04150)", "Potency", "> 9.22 µM (inactive)"),
    ("O=c1cnc2cnc(OCc3ccccc3)nc2n1Cc1ccc(F)cc1", "Glucocorticoid receptor (Homo sapiens) (UniProt P04150)", "Potency", "> 9.22 µM (inactive)"),
    ("COc1ccc(-n2c(=O)c(-c3ccc(F)cc3)nc3cnc(N4CCNCC4)nc32)cc1", "Glucocorticoid receptor (Homo sapiens) (UniProt P04150)", "Potency", "> 9.22 µM (inactive)"),
    ("CN(C)C(=O)c1ccc(-c2ccc3ncnc(NC4CCNCC4)c3c2)cc1", "Glucocorticoid receptor (Homo sapiens) (UniProt P04150)", "Potency", "> 46 µM (inactive)"),
    ("Cc1cccc(CNc2nc(-c3c(C)noc3C)nc3ccccc23)c1", "Glucocorticoid receptor (Homo sapiens) (UniProt P04150)", "Potency", "> 46 µM (inactive)"),
    ("Cc1cnc(CNc2cc(-c3c(C)noc3C)ncn2)cn1", "Glucocorticoid receptor (Homo sapiens) (UniProt P04150)", "Potency", "> 46 µM (inactive)"),
    ("Cc1noc(C)c1-c1nc(Nc2ccc(F)cc2)c2ccccc2n1", "Glucocorticoid receptor (Homo sapiens) (UniProt P04150)", "Potency", "> 46 µM (inactive)"),
    ("COc1cccc(-c2cncnc2NCc2cccnc2)c1", "Glucocorticoid receptor (Homo sapiens) (UniProt P04150)", "Potency", "> 46 µM (inactive)"),
    ("CC1(C)S[C@@H]2[C@H](NC(=O)[C@H](C(=O)O)c3ccsc3)C(=O)N2[C@H]1C(=O)O", "Glucocorticoid receptor (Homo sapiens) (UniProt P04150)", "Potency", "> 20.6 µM (inactive)"),
]
